# system_under_test: Human Fc (human)
# experiment: ELISA, negative control
reported_metric: optical density (OD)

INSERT INTO assay_data (binder, reported_metric, val) VALUES
  ('370_C01 (antibody, V domains shown) VH: EVQLLESGGGLVQPGGSLRLSCAASGFTFDSYSMNWVRQAPGKGLEWVSGINYNSGYTGYADSVKGRFTISRDNSKNTLYLQMNSLRAEDTAVYYCARSANWHDTALDYWGQGTLVTVSS VL: DIQMTQSPSSLSASVGDRVTITCRASQSILTYLNWYQQKPGKAPKLVIYAATSLASGVPSRFSGSGSGTDFTLTISSLQPEDFATYYCQQSYDTPLTFGGGTKVEIK', 'optical density', 0.403),
  ('370_G02 (antibody, V domains shown) VH: EVQLLESGGGLVQPGGSLRLSCAASGFTFSDYSMNWVRQAPGKGLEWVANINYNGGYKGYADSVKGRFTISRDNSKNTLYLQMNSLRAEDTAVYYCARSANWHDTALDYWGQGTLVTVSS VL: DIQMTQSPSSLSASVGDRVTITCRASQSIVSYLNWYQQKPGKAPKLLIYAATSRHSGVPSRFSGSGSGTDFTLTISSLQPEDFATYYCQQSYDSPLTFGGGTKVEIK', 'optical density', 0.388),
  ('371_F04 (antibody, V domains shown) VH: EVQLLESGGGLVQPGGSLRLSCAASGFTFDSYSMNWVRQAPGKGLEWVAGINYNSGYKGYADSVKGRFTISRDNSKNTLYLQMNSLRAEDTAVYYCARSANWHDTALDYWGQGTLVTVSS VL: DIQMTQSPSSLSASVGDRVTITCRASQSILSYLNWYQQKPGKAPKLLIYAATSRHSGVPSRFSGSGSGTDFTLTISSLQPEDFATYYCQQSYNNPLTFGGGTKVEIK', 'optical density', 0.345);

Data origin: patent US20210380703A1
